Tested on: HCT-15 colon
Experiment: NCI-60 one-dose screen, 48 h (100 = growth as untreated, 0 = no growth, -100 = all killed)
Details: 10 µM
Description: Growth inhibition of the HCT-15 human tumor cell line is measured as a screen for anti-cancer activity. Cells are grown in 96 well plates and exposed to the test compound for 48 hours. Compounds are tested at a single concentration, which is 10^-5 M for most compounds. The reported endpoint is percent growth (GI% or GIPRCNT), where numbers from 0 - 100% represent growth inhibition, and numbers from -100% - 0 represent cell death. For example, a value of 40 represents 60% growth inhibition. […]
This is part of a sample that, as a whole, favours compounds with a hit. Of some 83,000 tested, about 20% had one in any assay.

| chemical-smiles | result-unit | growth |
| --- | --- | --- |
| Oc1ccccc1-c1nnc(Cn2c(Cc3cccc4ccccc34)nc3ccccc32)o1 | % | 94 |
| O=S(=O)(NCCO)c1ccc(OCCOc2ccc(S(=O)(=O)NCCO)cc2)cc1 | % | 103 |
| Oc1ccc(/C=N\Nc2ccccn2)c(O)c1 | % | 32.7 |
| Nc1c(C(=O)NC2CCCCC2)sc2nc3c(cc12)C(=O)CCC3 | % | 85.8 |
| CCOc1ccc(-n2cc(-c3ccc(N(C)C)cc3)[n+]3c2CCCCC3)cc1 | % | 75.8 |
| CCOC(=O)c1sc(NC(=O)c2cc(OC)c(OC)c(OC)c2)nc1C | % | 96.9 |
| CCn1nc(-c2ccccn2)c2cccnc2c1=S | % | 67.2 |
| COCc1cc2c(cc1Br)OCO2 | % | 100 |
| CCCCCCCCCCCCCC[n+]1ccc(C)cc1 | % | 47 |
| CC(=O)O[C@H]1CC[C@@]2(C)[C@@H](CC[C@@H]3[C@@H]2CC[C@]2(C)C=C(C=O)C[C@@H]32)C1 | % | 27.5 |
| CC(=O)c1ccc(NCn2nc(-c3ccc(Cl)cc3)oc2=S)cc1 | % | 99.3 |

----------
Test system: IGROV1 ovarian
Assay: NCI-60 one-dose screen, 48 h (100 = growth as untreated, 0 = no growth, -100 = all killed)
Details: 10 µM
Compounds without any hit were thinned out: in the full panel of roughly 83,000, 20% have a hit.
Classify by measured growth: 1 if it is equal to or exceeds 70%, 0 if it is smaller.

| compound | category |
| --- | --- |
| CCCCCc1cc[n+](CC(=O)c2ccc(Cl)cc2)cc1 | 1 |
| Nc1nc2c(nnn2C2CC(O)C(CO)O2)c(=O)[nH]1 (centres undefined) | 0 |
| O=[N+]([O-])c1ccc2c(c1)Cc1cc(I)ccc1-2 | 1 |
| Cc1ccc(/C=C2\CN(Cc3cn(CCNc4ccnc5cc(Cl)ccc45)nn3)C/C(=C\c3ccc(C)cc3)C2=O)cc1 | 0 |
| NC1CCC(Nc2nc(NCc3ccc(-c4cccs4)nc3)c3ncn(C4CCCC4)c3n2)CC1 (centres undefined) | 0 |
| CCCCc1ccc(NC(=O)N(CCCl)N=O)cc1 | 1 |
| COC(=O)[C@]12CC[C@@H](C)[C@H](C)[C@@H]1C1=CC[C@@H]3[C@@]4(C)CC(=O)[C@H](O)[C@@](C)(CO)[C@@H]4C(=O)C[C@@]3(C)[C@]1(C)CC2 | 0 |
| O=C(O)CCCCSCCCCC(=O)O | 1 |
